Assayed target: ZmDRIK1-K217-P492 (Zea mays, UniProt C0P4K9)
Construct: kinase domain, K217-P492
Sequence (C0P4K9 1-514): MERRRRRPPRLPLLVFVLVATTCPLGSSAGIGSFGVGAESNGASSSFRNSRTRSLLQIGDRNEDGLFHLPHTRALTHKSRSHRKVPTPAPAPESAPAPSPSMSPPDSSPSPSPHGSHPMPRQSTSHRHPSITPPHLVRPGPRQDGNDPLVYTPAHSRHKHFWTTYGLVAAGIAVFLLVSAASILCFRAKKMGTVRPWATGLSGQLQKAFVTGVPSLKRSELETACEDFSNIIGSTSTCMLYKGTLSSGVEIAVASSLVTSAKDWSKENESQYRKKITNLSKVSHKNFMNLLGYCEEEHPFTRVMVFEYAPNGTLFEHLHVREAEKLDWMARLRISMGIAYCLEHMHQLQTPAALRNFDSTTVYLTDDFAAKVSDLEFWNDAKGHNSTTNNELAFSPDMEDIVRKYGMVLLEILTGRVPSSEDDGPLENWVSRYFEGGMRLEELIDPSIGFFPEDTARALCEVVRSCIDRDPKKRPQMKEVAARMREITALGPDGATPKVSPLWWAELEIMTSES
Test description: biochemical
Run parameters: read-out: dTm B, sheet ZmDRIK1-K217-P492;; DSF, Boltzmann fit, 0.1% DMSO
Reported metric: ΔTm at 10 µM (°C)

Compound | Reported metric | Quantity unit | Obs value
CO[C@H]1C[C@@H]2CC[C@@H](C)[C@@](O)(O2)C(=O)C(=O)N2CCCC[C@H]2C(=O)O[C@H]([C@H](C)C[C@@H]2CC[C@@H](O)[C@H](OC)C2)CC(=O)[C@H](C)/C=C(\C)[C@@H](O)[C@@H](OC)C(=O)[C@H](C)C[C@H](C)/C=C/C=C/C=C/1C [Rapamycin (Sirolimus)] | ΔTm at 10 µM | °C | -1.45
CNc1nc(-c2ccc3c(N)n[nH]c3c2)cc(N2C[C@@H](C(=O)NC3CCCCC3)CC[C@H]2C)n1 [GSK2334470] | ΔTm at 10 µM | °C | -0.636
CCNc1nc(Nc2cc(F)c(C(=O)N3CCOCC3)cc2OC)ncc1C(F)(F)F [GNE-7915] | ΔTm at 10 µM | °C | -0.898
CC(C)(C)c1cc(C=C(C#N)C#N)cc(C(C)(C)C)c1O [Tyrphostin 9] | ΔTm at 10 µM | °C | -0.298
C1=N/C2=N/c3ccc(OCCN4CCCC4)c(c3)COC/C=C/COCc3cccc(c3)C(=C1)N2 [Pacritinib (SB1518)] | ΔTm at 10 µM | °C | 1.04
O=C(c1ccc(Nc2nccc(-c3cc4ccccc4s3)n2)cc1)N1CCC(N2CCCC2)CC1 [IKK-16 (IKK Inhibitor VII)] | ΔTm at 10 µM | °C | -0.786

1: Cc1cc([C@@H](C)Nc2ccccc2C(=O)O)c2nc(N3CCOCC3)cc(=O)n2c1 [AZD6482]
2: CCN1CCN(Cc2ccc(-c3cc4c(N[C@H](C)c5ccccc5)ncnc4[nH]3)cc2)CC1 [AEE788 (NVP-AEE788)]
3: Cc1cc(Nc2cc(N3CCN(C)CC3)nc(/C=C/c3ccccc3)n2)n[nH]1 [ENMD-2076]
Query: Hey, quick one: sort these by ΔTm at 10 µM, largest value first please. Respond with an ordered listing of the labels, as requested.
Result: 3, 2, 1

1: CS(=O)(=O)c1ccc(-c2cnc(N)c(C(=O)Nc3ccccc3)n2)cc1 [VE-821]
2: C[C@H]1[C@H](C)CC[C@]2(C(=O)O)CC[C@]3(C)C(=CC[C@@H]4[C@@]5(C)C[C@@H](O)[C@H](O)[C@@](C)(CO)[C@@H]5CC[C@]43C)[C@H]12 [Asiatic Acid]
3: Oc1ccc2ccccc2c1SSc1c(O)ccc2ccccc12 [IPA-3]
Query: List by increasing ΔTm at 10 µM. # the answer lists labels in the order requested
Result: 3, 2, 1
